System tested: human ApoC3 (human)
Sequence (chain, as listed by the source): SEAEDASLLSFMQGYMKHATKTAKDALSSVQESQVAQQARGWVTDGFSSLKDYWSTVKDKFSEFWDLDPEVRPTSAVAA
Assay text: SPR pH 5.5
Reported metric: pKd
Note on pKd: it is the negative log10 of concentration, concentration in mol/L.

Recorded pKd, per entry:
Binder: mAb6 (antibody, V domains shown) VH: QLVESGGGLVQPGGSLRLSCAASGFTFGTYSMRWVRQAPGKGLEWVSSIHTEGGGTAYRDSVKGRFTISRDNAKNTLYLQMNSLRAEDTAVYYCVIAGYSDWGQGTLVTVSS VL: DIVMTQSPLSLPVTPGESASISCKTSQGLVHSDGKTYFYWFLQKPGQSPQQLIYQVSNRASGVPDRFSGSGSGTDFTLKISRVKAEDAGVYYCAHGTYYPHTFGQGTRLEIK
pKd: 9.46

Binder: mAb18 (antibody, V domains shown) VH: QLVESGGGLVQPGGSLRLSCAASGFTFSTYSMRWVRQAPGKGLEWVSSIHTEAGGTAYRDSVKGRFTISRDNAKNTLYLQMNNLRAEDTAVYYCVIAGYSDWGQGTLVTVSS VL: DIVMTQSPLSLPVTPGEPASISCKTSQGLVHSGGKTYFYWFLQKPGQSPQQLIYQVSNRASGVPDRFTGSGSGTDFTLKISRVEAEDAGVYYCAHGTYYPHTFGQGTRLEIK
pKd: 8.06

Binder: mAb7 (antibody, V domains shown) VH: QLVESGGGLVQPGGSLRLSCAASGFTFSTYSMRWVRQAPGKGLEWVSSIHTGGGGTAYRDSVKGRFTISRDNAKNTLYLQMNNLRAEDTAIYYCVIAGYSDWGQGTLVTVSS VL: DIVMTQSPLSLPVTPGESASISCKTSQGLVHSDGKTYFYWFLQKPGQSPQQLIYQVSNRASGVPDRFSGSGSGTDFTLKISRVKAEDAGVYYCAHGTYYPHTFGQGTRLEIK
pKd: 8.31

Binder: mAb5 (antibody, V domains shown) VH: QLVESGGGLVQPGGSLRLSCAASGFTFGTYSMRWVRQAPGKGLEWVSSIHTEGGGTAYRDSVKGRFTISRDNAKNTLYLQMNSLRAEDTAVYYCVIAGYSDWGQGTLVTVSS VL: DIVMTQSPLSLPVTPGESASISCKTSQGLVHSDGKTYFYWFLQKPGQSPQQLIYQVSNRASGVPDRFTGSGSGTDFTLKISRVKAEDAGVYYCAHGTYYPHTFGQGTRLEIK
pKd: 9.46

Below: the item to evaluate.
Indicate its recorded pKd; the binder in question is mAb3 (antibody, V domains shown) VH: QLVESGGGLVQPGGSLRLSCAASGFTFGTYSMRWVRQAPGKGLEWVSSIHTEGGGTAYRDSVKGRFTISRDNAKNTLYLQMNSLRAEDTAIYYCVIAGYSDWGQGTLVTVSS VL: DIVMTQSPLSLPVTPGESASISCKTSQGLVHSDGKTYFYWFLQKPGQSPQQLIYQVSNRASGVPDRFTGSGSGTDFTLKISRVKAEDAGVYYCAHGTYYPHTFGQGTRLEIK 9.45
